Where do these numbers come from? They come from PubChem BioAssay (NCI).

- Tested on: BT-549 breast
- assay: NCI tumour cell line growth inhibition, 48 h
assay_readout: TGI

Example entries begin here.
compound | target_or_system | TGI
CCN1C(=O)N(CC)C2C1NN=c1s/c(=C\c3ccccn3)c(=O)n12 (stereo not given) | BT-549 breast | > 100 µM
Cc1nn(-c2ccc([N+](=O)[O-])cc2)c2ncnc(N/N=C/c3ccccc3O)c12 | BT-549 breast | > 42.4 µM
CC(C)(C)c1[nH]nc2c1C(c1cc3ccccc3[nH]c1=O)Nc1cc(C(=O)OCc3ccccc3)ccc1N2 (stereo not given) | BT-549 breast | > 100 µM

Below: the item to evaluate.
Enquiry: Please state recorded TGI (tested on BT-549 breast) of COc1cc2c(c(OC)c1OC)-c1ccc(SC)cc1C(O)CC2 (stereo not given)
Return: 41 µg/mL

---

Attribute: TGI
- Test system: SK-OV-3 ovarian
- assay: NCI tumour cell line growth inhibition, 48 h

Enquiry: Please state recorded TGI (tested on SK-OV-3 ovarian) of C[C@]12CC[C@@H]3c4ccc(O)cc4CC[C@H]3[C@@H]1Cc1cnc(N)nc12
Return: 33.5 µM

Enquiry: Also COc1cccc(NC(=O)CC(=O)N2N=C(n3ccc4ccccc43)CC2c2ccccc2)c1 (stereo unspecified) ?
Return: > 100 µM

Enquiry: Also N#Cc1nc2c(S(=O)(=O)c3ccc(Cl)cc3)c(N)n(CCCN3CCOCC3)c2nc1C#N ?
Return: > 100 µM

Enquiry: Also Cn1cccc1-c1cc(-c2ccc(Br)cc2)[nH]c(=O)c1C#N ?
Return: > 100 µM

Enquiry: Also O=C(c1ccccc1)N1C(=S)N(c2ccccn2)C(=Nc2ccccc2)C1=Nc1ccccc1 ?
Return: > 86.6 µM

Enquiry: Also CCCCCCCCC/C=C1\CCC(CN(C)C)C1=O (stereo unspecified) ?
Return: 32 µM

Enquiry: Also CC1(C)N=C(C2CCCN2C(=O)OCc2ccccc2)OC1=O (stereo unspecified) ?
Return: > 100 µM

Enquiry: Also Cc1n(Cc2ccccc2)nc2sc(N)n[n+]12 ?
Return: > 100 µM

Enquiry: Also Fc1ccc(C(OCCN2CC3CCC(C2)N3CCCc2ccccc2)c2ccc(F)cc2)cc1 ?
Return: 23.3 µM

Enquiry: Also COc1ccc(N(/C=C/C(=O)C(F)(F)F)CC(=O)c2ccc(F)cc2)cc1 ?
Return: > 100 µM

Enquiry: Also CC(=O)Oc1ccc2c3c1O[C@H]1[C@H](O)CC[C@@]4(O)[C@@H](C2)N(C)CC[C@]314 ?
Return: > 100 µM

Enquiry: Also CSc1nc2c(c(=O)[nH]1)N=C(c1ccccc1)CC(c1ccccc1)N2 (stereo unspecified) ?
Return: 89.7 µM

Enquiry: Also OCCn1cnc2c(SCc3ccccc3)ncnc21 ?
Return: > 100 µM

Enquiry: Also Cc1cnc2[nH]c(-c3ccc4ccccc4c3)cc(=O)c2c1 ?
Return: > 100 µM

---

- Tested on: MDA-N
- assay: NCI tumour cell line growth inhibition, 48 h
Attribute: TGI

Example entries begin here.
compound | target_or_system | TGI
NS(=O)(=O)c1ccc(/C=C/c2ccc(O)cc2)cc1 | MDA-N | > 100 µM
CCOc1cc2c(c(OCC)c1O)CC[C@@H]1[C@@H]2CC[C@]2(C)[C@@H](O)CC[C@@H]12 | MDA-N | 1.58 µM
CC(=O)Oc1ccc2c3c1O[C@H]1[C@H](O)CC[C@@]4(O)[C@@H](C2)N(C)CC[C@]314 | MDA-N | > 100 µM
CC(C)Oc1c(-c2ccc(F)cc2)c(O)c2c3c1oc(=O)n3C=CC2C (stereo unspecified) | MDA-N | 27.1 µM
O=C(OCCNC(=O)N1CC1)OCCNC(=O)N1CC1 | MDA-N | > 10 µM
COc1ccc(-c2c(C#N)c(S)n(NS(=O)(=O)c3ccccc3)c(=O)c2C#N)cc1 | MDA-N | > 100 µM
COC(=O)CC1c2ccccc2N2C(=O)Cc3c([nH]c4ccccc34)C12 (stereo unspecified) | MDA-N | > 100 µM
CNC1(C(=O)O)CC1 | MDA-N | > 100 µM
CCO/C=N/C1=C(C#N)SC2=N/C(=C\c3ccccc3)C(=O)N21 | MDA-N | > 100 µM
COc1ccc(NC(=S)c2ccoc2C)cc1CC(=O)OC(C)C | MDA-N | > 100 µM

Below: the item to evaluate.
Enquiry: Value lookup for TGI; key = c1ccc(CSC2(SCc3ccccc3)CCCCC2)cc1
Return: > 10 µM
